molecular target: Sushi domains (SD1/2) protein; experiment: Fluorescence polarization (FP) competition assay with AJAP-1probe, calculated Ki; assay type: binding; details: Table 13, peptides for affinity maturation; read-out: Ki (nM) mean ± SEM
Non-standard residues stand in square brackets, D forms with d. Residues, ends and D or L forms follow the SMILES beside them. Sar = CNCC(=O)O
Field: Ki. Provide a value for each of the compounds that follow.
Just the number please, in nM, no unit attached.

Ki lookup needed for CC(=O)N[C@@H](CCC(=O)O)C(=O)N[C@@H](CC(=O)O)C(=O)N[C@@H](CC(=O)O)C(=O)N[C@@H](CO)C(=O)N[C@@H](CC(=O)O)C(=O)N[C@H](C(=O)N[C@@H](Cc1c[nH]c2ccccc12)C(=O)N[C@@H](Cc1c[nH]c2ccccc12)C(=O)N[C@@H](Cc1ccc(O)cc1)C(=O)N(C)CC(=O)N[C@H](C(=O)NCC(=O)N[C@@H](CC(=O)O)C(=O)N[C@@H](CCC(=O)O)C(=O)N[C@@H](CC(=O)O)C(N)=O)[C@@H](C)O)C(C)C (Ac-EDDSDVWWY[Sar]TGDED-NH2) , thanks.
142

Then CC(=O)N[C@@H](CCC(=O)O)C(=O)N[C@@H](CC(=O)O)C(=O)N[C@@H](CC(=O)O)C(=O)N[C@@H](CO)C(=O)N[C@@H](CC(=O)O)C(=O)N[C@H](C(=O)N[C@@H](Cc1c[nH]c2ccccc12)C(=O)N[C@@H](Cc1c[nH]c2ccccc12)C(=O)N[C@@H](Cc1ccc(O)cc1)C(=O)NCC(=O)N(C)CC(=O)N[C@@H](C)C(=O)N[C@@H](CC(=O)O)C(=O)N[C@H](C(=O)N[C@@H](CC(=O)O)C(N)=O)[C@@H](C)O)C(C)C (Ac-EDDSDVWWYG[Sar]ADTD-NH2) ?
164

Then CC[C@H](C)[C@H](NC(=O)[C@H](Cc1c[nH]c2ccccc12)NC(=O)[C@H](CO)NC(=O)[C@H](CC(=O)O)NC(=O)[C@H](CC(=O)O)NC(=O)[C@H](CCC(=O)O)NC(C)=O)C(=O)N[C@@H](CC(=O)O)C(=O)N[C@@H](Cc1c[nH]c2ccccc12)C(=O)N[C@@H](Cc1ccc(O)cc1)C(=O)NCC(=O)N[C@@H](C)C(=O)N[C@@H](CC(=O)O)C(=O)N[C@H](C(=O)N[C@@H](CC(=O)O)C(N)=O)[C@@H](C)O [Peptide 30] (Ac-EDDSWIDWYGADTD-NH2) ?
11

Where do these numbers come from? They come from patent US20260193293A1.
